Tested on: K562
procedureDetails: NCI tumour cell line growth inhibition, 48 h
Calls of active or inactive are those of the source. No stated cut-off is given here; in the data, active = GI50 up to about 1.1 µM and inactive = higher.
Labels: yes (active), no (inactive)

- compound: "COC(=O)C(=Cc1cc(OC)c(OC)c(OC)c1-c1cc2c(cc1C1(C)OCCS1)OCO2)C(=O)OC (centres undefined)"
  targetSystem: "K562"
  label: "no"
- compound: "Nc1ncnc2c1ncn2[C@@H]1O[C@H](COP(=O)(O)O)[C@@H](O)[C@@H]1O"
  targetSystem: "K562"
  label: "no"
- compound: "COC1=CC(=O)c2c(c(-c3csc(C)n3)cn2C)C1=O"
  targetSystem: "K562"
  label: "no"
- compound: "CSc1nc(NC2OC(COC(C)=O)C(OC(C)=O)C(OC(C)=O)C2OC(C)=O)c(/N=C(\\C)C(C)=O)c(=O)[nH]1 (centres undefined)"
  targetSystem: "K562"
  label: "no"
- compound: "COC1=CC(=O)c2ccccc2C1(C)C1=NC(C)(C)CO1 (centres undefined)"
  targetSystem: "K562"
  label: "no"
- compound: "c1ccc2c(c1)cc1n2CC2CN=NC12 (centres undefined)"
  targetSystem: "K562"
  label: "no"
- compound: "CCCOc1cc2c(cc1O)CC[C@@H]1[C@@H]2CC[C@]2(C)[C@@H](O)CC[C@@H]12"
  targetSystem: "K562"
  label: "yes"
- compound: "Cc1nn(CNc2ccc(F)c(Cl)c2)c(=S)n1/N=C/c1ccc(-c2ccc(Cl)cc2Cl)o1"
  targetSystem: "K562"
  label: "no"
- compound: "COC(=O)[C@H]1CO[C@H]2C/C(C)=C/CC/C(C)=C/CC[C@@]3(C)O[C@@H]3C[C@H]21"
  targetSystem: "K562"
  label: "no"

----------
Recorded GI50 for the following compounds
Tested on: OVCAR-3
procedureDetails: NCI tumour cell line growth inhibition, 48 h
Active and inactive are the calls of the source. No stated cut-off is given here; in the data, active = GI50 up to about 1.1 µM and inactive = higher.

- compound: "Cn1cc(C(=O)c2ccccc2)cc(C(=O)c2ccccc2)c1=O"
  GI50: "> 100 µM (inactive)"
- compound: "COc1ccc2c(c1)CCc1cc(OC)ccc1/[N+]([O-])=[N+]\\2[O-]"
  GI50: "16.6 µM (inactive)"
- compound: "C=C(CCCCC)CN1CCCC1C(C)=O (stereo unspecified)"
  GI50: "27.9 µM (inactive)"
- compound: "CC(C)=Cc1cc(CCC/C(C)=C/Cc2c(O)cc(C)c(C(=O)O)c2O)co1"
  GI50: "> 100 µM (inactive)"
- compound: "CN1CCC(n2[nH]c(-c3ccccc3)c(Cc3ccccc3)c2=O)CC1"
  GI50: "> 100 µM (inactive)"
- compound: "Nc1ncnc2c1ncn2[C@@H]1O[C@H](COP(=O)(O)O)[C@@H](O)[C@@H]1O"
  GI50: "> 50 µM (inactive)"
- compound: "COc1cccc(C2CC23C(=O)NC(=O)NC3=O)c1 (stereo unspecified)"
  GI50: "> 100 µM (inactive)"
- compound: "O=C(/N=N/C(=O)OCc1ccccc1)OCc1ccccc1"
  GI50: "58.2 µM (inactive)"
- compound: "COc1cc(Nc2nc3ccc(C(F)(F)F)cc3nc2C(=O)O)cc(OC)c1OC"
  GI50: "32.1 µM (inactive)"
- compound: "CN(C)CCCCN1CCc2c(n(C)c3ccccc23)C1=O"
  GI50: "> 81.3 µM (inactive)"
- compound: "Cn1c(=O)c2c(nc3n(Cc4ccccc4)c(=O)c(Br)cn23)n(C)c1=O"
  GI50: "> 100 µM (inactive)"

----------
Tested on: HOP-18
procedureDetails: NCI tumour cell line growth inhibition, 48 h
The source made the active and inactive calls. Cut-off read from the data, not from the text of the source: active = GI50 up to about 1.1 µM and inactive = higher.
Labels: Yes = active, No = inactive

- compound: "O=C(O)CCCCCO"
  label: "No"
- compound: "CCOC(=O)CCCO"
  label: "No"
- compound: "Cc1cc(C(C)C)cc(=O)c(O)c1"
  label: "No"
- compound: "CCSC(=O)C1(C)OC2CCCCC2C1=O (stereo unspecified)"
  label: "No"
- compound: "O=C(O)c1cc2c3c(c1)[C@H]1C=CC[C@H]1CN3CC1CC=CC21 (stereo partly specified)"
  label: "No"
- compound: "Nc1nc(Cl)cc(NCCCCCCCCCCCCNc2cc(Cl)nc(N)n2)n1"
  label: "No"
- compound: "CCCCCCCCCCC(C)CCCCCCC(=O)O (stereo unspecified)"
  label: "No"
- compound: "O=C(Nc1cccc(C(F)(F)F)c1)C(=O)C(C(=O)c1ccc(Cl)c(Cl)c1)C1OC(=O)c2ccccc21 (stereo unspecified)"
  label: "No"
- compound: "COc1cccc2c1C(=O)c1c(O)c3c(c(O)c1C2=O)C[C@@](O)(/C(C)=N/NC(=O)c1ccccc1)C[C@@H]3OC1CC(N)C(O)C(C)O1 (stereo partly specified)"
  label: "Yes"
- compound: "C=C(CCCCC)CN1CCCC1C(C)=O (stereo unspecified)"
  label: "No"
- compound: "C=C1C(=O)OC2C1C(OC(=O)/C(C)=C\\C)CC1(CO1)C1C(O)C=C(C)C21O (stereo unspecified)"
  label: "No"

----------
Tested on: BT-549
procedureDetails: NCI tumour cell line growth inhibition, 48 h
The source made the active and inactive calls. Rule as the data show it: active = GI50 up to about 1.1 µM and inactive = higher.
Labels: Y (active), N (inactive)

- molecule: "Cc1ccc(S(=O)(=O)N/N=C/c2c(O)ccc3ccccc23)cc1"
  targetSystem: "BT-549"
  label: "N"
- molecule: "CN(C)S(=O)(=O)c1ccc2c(c1)/C(=C1/Nc3ccccc3C1=O)C(=O)N2"
  targetSystem: "BT-549"
  label: "N"
- molecule: "CC(=O)n1nc(-c2ccccc2)n(/N=C/c2ccc([N+](=O)[O-])o2)c1=O"
  targetSystem: "BT-549"
  label: "N"
- molecule: "O=C1CCC2(c3ccc(F)cc3)Nc3ncncc3N12 (stereo unspecified)"
  targetSystem: "BT-549"
  label: "N"
- molecule: "CCCCCCC(C)CC(CCCCCC)NCCOC(=O)c1ccc([N+](=O)[O-])cc1 (stereo unspecified)"
  targetSystem: "BT-549"
  label: "N"
- molecule: "CCN(CC)c1ccc(/C=C/C=C2C(=O)NC(=S)NC2=O)cc1"
  targetSystem: "BT-549"
  label: "N"
- molecule: "COc1ccc2c(c1)CCc1cc(OC)ccc1/[N+]([O-])=[N+]\\2[O-]"
  targetSystem: "BT-549"
  label: "N"
- molecule: "N#CC(NCc1cccc(CNC(C#N)c2ccccc2)c1)c1ccccc1 (stereo unspecified)"
  targetSystem: "BT-549"
  label: "N"
- molecule: "COc1ccc(Oc2cccc(/C=C3/C(=O)Nc4ccccc43)c2)cc1"
  targetSystem: "BT-549"
  label: "N"
- molecule: "CC(C)CCNC(=O)C(CC(C)C)NC(=O)[C@H]1O[C@@H]1C(=O)O (stereo partly specified)"
  targetSystem: "BT-549"
  label: "N"
- molecule: "Cc1csc2nc(-c3ccc([N+](=O)[O-])cc3)c(/C=N/N=C(N)N)n12"
  targetSystem: "BT-549"
  label: "Y"
- molecule: "COC(=O)[C@H]1CO[C@H]2C/C(C)=C/CC/C(C)=C/CC[C@@]3(C)O[C@@H]3C[C@H]21"
  targetSystem: "BT-549"
  label: "N"
- molecule: "CCCCN1C(=O)C[C@H]2[C@@H]3CCc4cc(OCCN5CCCC5)ccc4[C@H]3CC[C@]2(C)C1=O"
  targetSystem: "BT-549"
  label: "N"
- molecule: "CCOC(=O)c1[nH]c2nc(SC)nc(Nc3ccccc3Cl)c2c1N"
  targetSystem: "BT-549"
  label: "N"
- molecule: "CC1(C)CC(=O)C2=C(C1)N(c1ccccc1)C1(O)C=CC(O)=C3C(=O)c4ccccc4C(=O)C321 (stereo unspecified)"
  targetSystem: "BT-549"
  label: "N"
- molecule: "Cc1ccccc1/N=N/c1cc(C)c(/N=N/c2c(O)ccc3ccccc23)cc1C"
  targetSystem: "BT-549"
  label: "N"
- molecule: "CNC(=O)OCc1c2ccncc2c(C)c2c1[nH]c1ccccc12"
  targetSystem: "BT-549"
  label: "Y"
- molecule: "CCCCCCCNC(P(=O)(O)O)P(=O)(O)O"
  targetSystem: "BT-549"
  label: "N"
- molecule: "O=C(NNC(=O)c1c(Cl)c(Cl)c(Cl)c(Cl)c1-c1nc2ccccc2[nH]1)c1ccc(Cl)cc1"
  targetSystem: "BT-549"
  label: "N"
- molecule: "CON(C)C(=O)CNC(=O)OCC1c2ccccc2-c2ccccc21"
  targetSystem: "BT-549"
  label: "N"
- molecule: "CCCCCCCCCCC(C(=O)O)C1(C(=O)O)CCC(=O)O1 (stereo unspecified)"
  targetSystem: "BT-549"
  label: "N"

----------
Recorded GI50 for the following compounds
Test system: DLD-1
procedureDetails: NCI tumour cell line growth inhibition, 48 h
Calls of active or inactive are those of the source. Rule as the data show it: active = GI50 up to about 1.1 µM and inactive = higher.

- compound: "Nc1nc(Cl)cc(NCCCCCCCCCCCCNc2cc(Cl)nc(N)n2)n1"
  targetSystem: "DLD-1"
  GI50: "4.61 µM (inactive)"
- compound: "Nc1ncn([C@@H]2C=C(CO)C(O)C2O)c(=O)n1 (some centres undefined)"
  targetSystem: "DLD-1"
  GI50: "58.2 µM (inactive)"
- compound: "CC(=O)OCC1OC(n2cc(F)c(=O)[nH]c2=O)C(NC(=O)OCc2ccccc2)C(OC(C)=O)C1OC(C)=O (centres undefined)"
  targetSystem: "DLD-1"
  GI50: "> 100 µM (inactive)"
- compound: "Nc1nc(SCCC/C=C/I)nc2c1ncn2C1OC(CO)C(O)C1O (centres undefined)"
  targetSystem: "DLD-1"
  GI50: "> 202 µM (inactive)"
